Numbers sourced from ChEMBL document CHEMBL1629484.

Listed below: log10(solubility thermodynamic) values for each entry.
experiment: Aqueous equilibrium solubility of compound in simulated intestinal fluid at pH 6.8; assay type: physicochemical
Give log10 of solubility thermodynamic, with solubility thermodynamic taken in µg/mL.

Observe how each entry below is paired with its result.
CC(=O)N(C)C1CCN(c2nc3c(c(Nc4ccc(C(F)(F)F)cc4)n2)CCN(c2ncccc2C(F)(F)F)CC3)C1 (stereo not given)	0.30
CN(C)CCN(C)c1nc2c(c(Nc3ccc(C(F)(F)F)cc3)n1)CCN(c1ncccc1C(F)(F)F)CC2	2.32
FC(F)(F)c1ccc(Nc2nc(NCC3CCCCN3)nc3c2CCN(c2ncccc2C(F)(F)F)CC3)cc1 (stereo not given)	2.37
CNC1CCN(c2nc3c(c(Nc4ccc(C(F)(F)F)cc4)n2)CCN(c2ncccc2C(F)(F)F)CC3)C1 (stereo not given)	2.37
CN(c1nc2c(c(Nc3ccc(C(F)(F)F)cc3)n1)CCN(c1ncccc1C(F)(F)F)CC2)C1CCCN(C(=O)OC(C)(C)C)C1 (stereo not given)	0.60
CC(C)N1CCN(c2nc3c(c(Nc4ccc(C(F)(F)F)cc4)n2)CCN(c2ncccc2C(F)(F)F)CC3)CC1	0.30
CN1CCCC(Nc2nc3c(c(Nc4ccc(C(F)(F)F)cc4)n2)CCN(c2ncccc2C(F)(F)F)CC3)C1 (stereo not given)	2.35
CN1CCCCC1CNc1nc2c(c(Nc3ccc(C(F)(F)F)cc3)n1)CCN(c1ncccc1C(F)(F)F)CC2 (stereo not given)	2.40
CC(C)CN1CCN(c2nc3c(c(Nc4ccc(C(F)(F)F)cc4)n2)CCN(c2ncccc2C(F)(F)F)CC3)CC1	1.04
CC(=O)NC1CCN(c2nc3c(c(Nc4ccc(C(F)(F)F)cc4)n2)CCN(c2ncccc2C(F)(F)F)CC3)C1 (stereo not given)	1.28

Need log10(solubility thermodynamic), item OCCN1CCN(c2nc3c(c(Nc4ccc(C(F)(F)F)cc4)n2)CCN(c2ncccc2C(F)(F)F)CC3)CC1
0.60

Need log10(solubility thermodynamic), item FC(F)(F)c1ccc(Nc2nc(N3CCNCC3)nc3c2CCN(c2ncccc2C(F)(F)F)CC3)cc1
2.20

Need log10(solubility thermodynamic), item CCC(CC)N1CCN(c2nc3c(c(Nc4ccc(C(F)(F)F)cc4)n2)CCN(c2ncccc2C(F)(F)F)CC3)CC1
2.04

Need log10(solubility thermodynamic), item CN(C)[C@H]1CCN(c2nc3c(c(Nc4ccc(C(F)(F)F)cc4)n2)CCN(c2ncccc2C(F)(F)F)CC3)C1
1.76

----------
test: AUC (infinity) in fasted Sprague-Dawley rat at 2 mg/kg, po; assay type: ADME, organism-based; design: time infinity, dose 2 mg/kg, route oral; settings: plasma
property.name: AUC(0-inf)

Need AUC(0-inf), item CC(C)CN1CCN(c2nc3c(c(Nc4ccc(C(F)(F)F)cc4)n2)CCN(c2ncccc2C(F)(F)F)CC3)CC1
598 ng·h/mL

----------
Listed below: solubility thermodynamic values for each entry.
assay: Aqueous equilibrium solubility of compound in phosphate buffer at pH 2; format: physicochemical

Observe how each entry below is paired with its result.
CC(=O)NC1CCN(c2nc3c(c(Nc4ccc(C(F)(F)F)cc4)n2)CCN(c2ncccc2C(F)(F)F)CC3)C1 (stereo unspecified)	202 µg/mL
FC(F)(F)c1ccc(Nc2nc(N3CCN(C4CCCC4)CC3)nc3c2CCN(c2ncccc2C(F)(F)F)CC3)cc1	221 µg/mL
CCN1CCN(c2nc3c(c(Nc4ccc(C(F)(F)F)cc4)n2)CCN(c2ncccc2C(F)(F)F)CC3)CC1	> 226 µg/mL
CN(c1nc2c(c(Nc3ccc(C(F)(F)F)cc3)n1)CCN(c1ncccc1C(F)(F)F)CC2)C1CCCNC1 (stereo unspecified)	> 241 µg/mL
FC(F)(F)c1ccc(Nc2nc(NCC3CCCCN3)nc3c2CCN(c2ncccc2C(F)(F)F)CC3)cc1 (stereo unspecified)	> 272 µg/mL

Need solubility thermodynamic, item CN(C)[C@H]1CCN(c2nc3c(c(Nc4ccc(C(F)(F)F)cc4)n2)CCN(c2ncccc2C(F)(F)F)CC3)C1
> 226 µg/mL

Need solubility thermodynamic, item CN1CCCC(N(C)c2nc3c(c(Nc4ccc(C(F)(F)F)cc4)n2)CCN(c2ncccc2C(F)(F)F)CC3)C1 (stereo unspecified)
> 232 µg/mL

Need solubility thermodynamic, item CC(C)(C)OC(=O)N1CCCC(Nc2nc3c(c(Nc4ccc(C(F)(F)F)cc4)n2)CCN(c2ncccc2C(F)(F)F)CC3)C1 (stereo unspecified)
1 µg/mL

Need solubility thermodynamic, item CN1CCN(c2nc3c(c(Nc4ccc(C(F)(F)F)cc4)n2)CCN(c2ncccc2C(F)(F)F)CC3)CC1
> 221 µg/mL

Need solubility thermodynamic, item FC(F)(F)c1ccc(Nc2nc(NC3CCCNC3)nc3c2CCN(c2ncccc2C(F)(F)F)CC3)cc1 (stereo unspecified)
> 235 µg/mL

Need solubility thermodynamic, item FC(F)(F)c1ccc(Nc2nc(N3CCN(C4CCC4)CC3)nc3c2CCN(c2ncccc2C(F)(F)F)CC3)cc1
> 237 µg/mL

Need solubility thermodynamic, item CN(c1nc2c(c(Nc3ccc(C(F)(F)F)cc3)n1)CCN(c1ncccc1C(F)(F)F)CC2)C1CCCN(C(=O)OC(C)(C)C)C1 (stereo unspecified)
1 µg/mL

Need solubility thermodynamic, item CN(CC1CCCCN1C)c1nc2c(c(Nc3ccc(C(F)(F)F)cc3)n1)CCN(c1ncccc1C(F)(F)F)CC2 (stereo unspecified)
> 283 µg/mL

Need solubility thermodynamic, item CC(=O)N(C)C1CCN(c2nc3c(c(Nc4ccc(C(F)(F)F)cc4)n2)CCN(c2ncccc2C(F)(F)F)CC3)C1 (stereo unspecified)
21 µg/mL

Need solubility thermodynamic, item OCCN1CCN(c2nc3c(c(Nc4ccc(C(F)(F)F)cc4)n2)CCN(c2ncccc2C(F)(F)F)CC3)CC1
> 233 µg/mL

Need solubility thermodynamic, item NC1CCN(c2nc3c(c(Nc4ccc(C(F)(F)F)cc4)n2)CCN(c2ncccc2C(F)(F)F)CC3)C1 (stereo unspecified)
> 215 µg/mL
